Molecular target: Adrenergic receptor alpha-2 (Rattus norvegicus, UniProt P22086+P19328+P22909)
Test: Binding affinity against Alpha-2 adrenergic receptor by displacing [3H]rauwolscine radioligand in rat cortex membrane
Assay type: cell membranes, Brain
Measured Property: Ki (nM)

INSERT INTO assay_data (molecule, measured_property, test_result) VALUES
  ('O=c1ccc(-n2cnc3ccccc32)nn1CCCCCCN1CCN(c2ccccc2Cl)CC1', 'Ki', 31.5),
  ('O=c1ccc(-n2cnc3ccccc32)nn1CCCCN1CCN(c2ccccc2Cl)CC1', 'Ki', 5.8),
  ('COc1ccccc1N1CCN(CCCCCCn2nc(-n3ccc4ccccc43)ccc2=O)CC1', 'Ki', 104),
  ('COc1ccccc1N1CCN(CCCCCCCn2nc(-n3ccc4ccccc43)ccc2=O)CC1', 'Ki', 306);

a. COc1ccccc1N1CCN(CCCn2nc(-n3ccc4ccccc43)ccc2=O)CC1
b. COc1ccccc1N1CCN(CCCCCn2nc(-n3ccnc3)ccc2=O)CC1
c. COc1ccccc1N1CCN(CCCCn2nc(-n3ccc4ccccc43)ccc2=O)CC1
[ask] # rank by Ki, ascending (min first) Labels, ranked as asked.
[reply] c, a, b

---

pKi: −log10 of the molar value.
Record set of pKi for target or system 5-hydroxytryptamine receptor 1A (Rattus norvegicus, UniProt P19327).
Measured Property: pKi

INSERT INTO results (molecule, measured_property, test_result) VALUES
  ('COc1ccccc1N1CCN(CCCn2nc(-n3cnc4ccccc43)ccc2=O)CC1', 'pKi', 6.42);

P. COc1ccccc1N1CCN(CCCCCn2nc(-n3ccc4ccccc43)ccc2=O)CC1
Q. O=c1ccc(-n2ccnc2)nn1CCCN1CCN(c2ccccc2Cl)CC1
[ask] Between P and Q , whose recorded pKi is greater? Choose, then provide that item's label.
[reply] P

I. COc1ccccc1N1CCN(CCCCCn2nc(-n3ccnc3)ccc2=O)CC1
II. O=c1ccc(-n2cnc3ccccc32)nn1CCCCCN1CCN(c2ccccc2Cl)CC1
III. O=c1ccc(-n2ccnc2)nn1CCCCCCCN1CCN(c2ccccc2Cl)CC1
[ask] # rank by pKi, ascending (min first) Labels, ranked as asked.
[reply] II, I, III

1. O=c1ccc(-n2cnc3ccccc32)nn1CCCCCCCN1CCN(c2ccccc2Cl)CC1
2. O=c1ccc(-n2cnc3ccccc32)nn1CCCN1CCN(c2ccccc2Cl)CC1
3. COc1ccccc1N1CCN(CCCCCCn2nc(-n3cnc4ccccc43)ccc2=O)CC1
[ask] Thanks in advance: please rank these 3 entries by pKi, highest to lowest. Labels, ranked as asked.
[reply] 3, 1, 2
(3: 6.97, 1: 6.74, 2: 6.34)

1. O=c1ccc(-n2cnc3ccccc32)nn1CCCCN1CCN(c2ccccc2Cl)CC1
2. COc1ccccc1N1CCN(CCCCCCn2nc(-n3ccc4ccccc43)ccc2=O)CC1
[ask] Between 1 and 2 , whose recorded pKi is greater? Choose, then provide that item's label.
[reply] 1

I. COc1ccccc1N1CCN(CCCCCCCn2nc(-n3ccc4ccccc43)ccc2=O)CC1
II. COc1ccccc1N1CCN(CCCn2nc(-n3ccnc3)ccc2=O)CC1
[ask] Between I and II , whose recorded pKi is greater? Choose, then provide that item's label.
[reply] I
(I: 6.74, II: 6.33)

a. COc1ccccc1N1CCN(CCn2nc(-n3ccc4ccccc43)ccc2=O)CC1
b. COc1ccccc1N1CCN(CCCCCCCn2nc(-n3ccnc3)ccc2=O)CC1
[ask] Between a and b , whose recorded pKi is greater? Choose, then provide that item's label.
[reply] b
(b: 7.01, a: 6.51)

---

Target: Adrenergic receptor alpha-1 (Rattus norvegicus, UniProt P15823+P23944+P43140)
Assay: Binding affinity against Alpha-1 adrenergic receptor by displacing [3H]-prazosin radioligand in rat cortex membrane
Format: cell membranes, Brain
Measured Property: Ki (nM)

Some solved entries appear below for comparison.
INSERT INTO results (molecule, system, u, test_result) VALUES
  ('O=c1ccc(-n2ccnc2)nn1CCCCCN1CCN(c2ccccc2Cl)CC1', 'Adrenergic receptor alpha-1 (Rattus norvegicus, UniProt P15823+P23944+P43140)', 'nM', 23.3),
  ('O=c1ccc(-n2cnc3ccccc32)nn1CCCCCN1CCN(c2ccccc2Cl)CC1', 'Adrenergic receptor alpha-1 (Rattus norvegicus, UniProt P15823+P23944+P43140)', 'nM', 4.5),
  ('COc1ccccc1N1CCN(CCCCCCCn2nc(-n3cnc4ccccc43)ccc2=O)CC1', 'Adrenergic receptor alpha-1 (Rattus norvegicus, UniProt P15823+P23944+P43140)', 'nM', 1.7);

a. COc1ccccc1N1CCN(CCCCCCn2nc(-n3ccnc3)ccc2=O)CC1
b. O=c1ccc(-n2ccnc2)nn1CCN1CCN(c2ccccc2Cl)CC1
[ask] Between a and b , whose recorded Ki is greater? Choose, then provide that item's label.
[reply] b

I. COc1ccccc1N1CCN(CCCCCn2nc(-n3ccnc3)ccc2=O)CC1
II. O=c1ccc(-n2cnc3ccccc32)nn1CCCCCCCN1CCN(c2ccccc2Cl)CC1
III. COc1ccccc1N1CCN(CCCCCn2nc(-n3ccc4ccccc43)ccc2=O)CC1
IV. COc1ccccc1N1CCN(CCn2nc(-n3ccnc3)ccc2=O)CC1
V. O=c1ccc(-n2cnc3ccccc32)nn1CCN1CCN(c2ccccc2Cl)CC1
[ask] Thanks in advance: please rank these 5 entries by Ki, highest to lowest. Labels, ranked as asked.
[reply] IV, V, I, III, II
(IV: 237 nM, V: 70.4 nM, I: 37.5 nM, III: 6.8 nM, II: 1 nM)

---

Molecular target: Adrenergic receptor alpha-2 (Rattus norvegicus, UniProt P22086+P19328+P22909)
Test: Binding affinity against Alpha-2 adrenergic receptor by displacing [3H]rauwolscine radioligand in rat cortex membrane
Type: cell membranes, Brain
Measured Property: Ki (nM)

Some solved entries appear below for comparison.
INSERT INTO results (molecule, system, test_result) VALUES
  ('O=c1ccc(-n2ccnc2)nn1CCCCCCN1CCN(c2ccccc2Cl)CC1', 'Adrenergic receptor alpha-2 (Rattus norvegicus, UniProt P22086+P19328+P22909)', 138),
  ('COc1ccccc1N1CCN(CCCCCn2nc(-n3ccc4ccccc43)ccc2=O)CC1', 'Adrenergic receptor alpha-2 (Rattus norvegicus, UniProt P22086+P19328+P22909)', 95.6),
  ('O=c1ccc(-n2ccnc2)nn1CCN1CCN(c2ccccc2Cl)CC1', 'Adrenergic receptor alpha-2 (Rattus norvegicus, UniProt P22086+P19328+P22909)', 2072),
  ('COc1ccccc1N1CCN(CCCCCCn2nc(-n3ccnc3)ccc2=O)CC1', 'Adrenergic receptor alpha-2 (Rattus norvegicus, UniProt P22086+P19328+P22909)', 131),
  ('O=c1ccc(-n2ccnc2)nn1CCCCN1CCN(c2ccccc2Cl)CC1', 'Adrenergic receptor alpha-2 (Rattus norvegicus, UniProt P22086+P19328+P22909)', 65.2);

P. O=c1ccc(-n2ccnc2)nn1CCCCCN1CCN(c2ccccc2Cl)CC1
Q. COc1ccccc1N1CCN(CCCCCn2nc(-n3cnc4ccccc43)ccc2=O)CC1
[ask] Between P and Q , whose recorded Ki is greater? Choose, then provide that item's label.
[reply] P

A. COc1ccccc1N1CCN(CCn2nc(-n3ccnc3)ccc2=O)CC1
B. COc1ccccc1N1CCN(CCCCCCn2nc(-n3cnc4ccccc43)ccc2=O)CC1
[ask] Between A and B , whose recorded Ki is greater? Choose, then provide that item's label.
[reply] A

---

Molecular target: Adrenergic receptor alpha-1 (Rattus norvegicus, UniProt P15823+P23944+P43140)
Sequence (P15823 whole entry): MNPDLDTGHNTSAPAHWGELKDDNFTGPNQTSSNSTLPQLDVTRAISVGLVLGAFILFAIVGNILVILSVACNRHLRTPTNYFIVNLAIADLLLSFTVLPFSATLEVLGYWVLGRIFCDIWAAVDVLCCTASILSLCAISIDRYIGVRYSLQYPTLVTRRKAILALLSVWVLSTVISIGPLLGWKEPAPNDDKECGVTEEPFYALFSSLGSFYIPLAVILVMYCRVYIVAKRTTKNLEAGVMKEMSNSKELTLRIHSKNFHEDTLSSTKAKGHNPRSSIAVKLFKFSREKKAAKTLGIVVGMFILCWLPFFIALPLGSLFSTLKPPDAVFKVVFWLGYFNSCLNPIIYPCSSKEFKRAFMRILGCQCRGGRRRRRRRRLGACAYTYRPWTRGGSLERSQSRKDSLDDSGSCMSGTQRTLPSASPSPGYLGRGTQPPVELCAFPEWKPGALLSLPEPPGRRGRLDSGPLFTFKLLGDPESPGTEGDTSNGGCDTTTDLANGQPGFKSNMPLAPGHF
Sequence (P23944 whole entry): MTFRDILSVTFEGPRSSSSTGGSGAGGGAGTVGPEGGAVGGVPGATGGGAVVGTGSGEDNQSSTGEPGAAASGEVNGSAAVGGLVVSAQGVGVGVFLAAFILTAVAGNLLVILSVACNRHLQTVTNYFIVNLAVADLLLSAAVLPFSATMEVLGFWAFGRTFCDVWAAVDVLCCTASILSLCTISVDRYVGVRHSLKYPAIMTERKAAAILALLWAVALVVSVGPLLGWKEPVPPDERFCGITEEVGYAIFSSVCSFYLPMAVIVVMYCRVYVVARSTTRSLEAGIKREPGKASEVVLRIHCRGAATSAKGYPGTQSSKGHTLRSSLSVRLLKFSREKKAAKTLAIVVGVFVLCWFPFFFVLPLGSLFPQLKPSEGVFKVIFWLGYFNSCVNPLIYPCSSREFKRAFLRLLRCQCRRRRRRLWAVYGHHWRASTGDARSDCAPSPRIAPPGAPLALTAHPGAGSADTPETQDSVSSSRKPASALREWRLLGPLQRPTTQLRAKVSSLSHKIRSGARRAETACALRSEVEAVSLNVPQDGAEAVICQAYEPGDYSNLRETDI
Sequence (P43140 whole entry): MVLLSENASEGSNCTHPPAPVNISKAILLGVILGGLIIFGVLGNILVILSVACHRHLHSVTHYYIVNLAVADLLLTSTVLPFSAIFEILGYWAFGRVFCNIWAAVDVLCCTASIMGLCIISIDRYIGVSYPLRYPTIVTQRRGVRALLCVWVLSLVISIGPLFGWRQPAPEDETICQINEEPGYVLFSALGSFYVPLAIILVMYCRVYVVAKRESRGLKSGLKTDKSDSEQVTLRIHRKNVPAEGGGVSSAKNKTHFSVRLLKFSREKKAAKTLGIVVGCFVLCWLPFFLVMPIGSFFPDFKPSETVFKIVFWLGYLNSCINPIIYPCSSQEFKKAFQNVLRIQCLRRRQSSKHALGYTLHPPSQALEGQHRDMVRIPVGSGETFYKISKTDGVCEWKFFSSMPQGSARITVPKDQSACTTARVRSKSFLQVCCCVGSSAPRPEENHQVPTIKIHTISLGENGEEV
Experiment: Binding affinity against Alpha-1 adrenergic receptor by displacing [3H]-prazosin radioligand in rat cortex membrane
Format: cell membranes, Brain
Measured Property: Ki (µM)

Some solved entries appear below for comparison.
INSERT INTO results (molecule, measured_property, test_result) VALUES
  ('COc1ccccc1N1CCN(CCn2nc(-n3ccc4ccccc43)ccc2=O)CC1', 'Ki', 0.0227),
  ('COc1ccccc1N1CCN(CCn2nc(-n3cnc4ccccc43)ccc2=O)CC1', 'Ki', 0.033),
  ('COc1ccccc1N1CCN(CCCn2nc(-n3ccc4ccccc43)ccc2=O)CC1', 'Ki', 0.0032),
  ('O=c1ccc(-n2ccnc2)nn1CCCCN1CCN(c2ccccc2Cl)CC1', 'Ki', 0.0246);

I. O=c1ccc(-n2cnc3ccccc32)nn1CCCCN1CCN(c2ccccc2Cl)CC1
II. O=c1ccc(-n2ccnc2)nn1CCCCCCN1CCN(c2ccccc2Cl)CC1
[ask] Which record shows the lower Ki: the first, I , or the second, II ? Choose, then provide that item's label.
[reply] I

I. O=c1ccc(-n2cnc3ccccc32)nn1CCCCCCN1CCN(c2ccccc2Cl)CC1
II. COc1ccccc1N1CCN(CCCCCCn2nc(-n3ccc4ccccc43)ccc2=O)CC1
III. COc1ccccc1N1CCN(CCCCCCn2nc(-n3cnc4ccccc43)ccc2=O)CC1
[ask] # rank by Ki, ascending (min first) Labels, ranked as asked.
[reply] II, III, I
(II: 0.0028 µM, III: 0.0064 µM, I: 0.0151 µM)
